Source listed as PubChem BioAssay AID1645863.

Subject of test: Ubiquitin carboxyl-terminal hydrolase 10 (Homo sapiens) (UniProt Q14694)
Sequence (Q14694 whole entry, looked up): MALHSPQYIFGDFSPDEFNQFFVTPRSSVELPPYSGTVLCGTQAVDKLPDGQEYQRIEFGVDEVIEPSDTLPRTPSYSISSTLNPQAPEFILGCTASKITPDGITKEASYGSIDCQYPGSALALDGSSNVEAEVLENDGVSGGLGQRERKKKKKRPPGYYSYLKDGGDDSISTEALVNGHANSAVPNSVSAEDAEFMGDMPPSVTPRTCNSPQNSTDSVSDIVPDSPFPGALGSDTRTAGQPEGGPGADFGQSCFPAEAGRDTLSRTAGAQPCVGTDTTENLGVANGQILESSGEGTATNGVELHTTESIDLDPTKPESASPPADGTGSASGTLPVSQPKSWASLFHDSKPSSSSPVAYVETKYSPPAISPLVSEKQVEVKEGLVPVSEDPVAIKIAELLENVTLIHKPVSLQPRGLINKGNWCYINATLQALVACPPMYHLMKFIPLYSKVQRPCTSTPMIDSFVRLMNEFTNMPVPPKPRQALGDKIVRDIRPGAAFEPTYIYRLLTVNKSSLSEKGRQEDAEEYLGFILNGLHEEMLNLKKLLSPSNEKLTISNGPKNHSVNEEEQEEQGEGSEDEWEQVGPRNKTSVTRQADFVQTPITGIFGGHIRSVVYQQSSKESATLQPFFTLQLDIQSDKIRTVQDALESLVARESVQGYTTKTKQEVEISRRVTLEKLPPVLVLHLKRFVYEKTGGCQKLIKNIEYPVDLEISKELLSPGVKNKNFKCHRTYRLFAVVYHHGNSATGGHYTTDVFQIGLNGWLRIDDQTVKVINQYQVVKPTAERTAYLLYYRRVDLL
Run description: ubiquitin-specific protease 10 DUB inhibitors, concentration-effect, biochemical, verification of primary screen actives (AID 1645863);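 also: potency values describe inhibition of USP10 cleavage of a fluorogenic ubiquitin substrate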
Details: USP10 deubiquitinase enzymatic assay
Activity calls are given as the source filed them. No rule for the calls is given here.
Could you please pick one outcome from this set? 1 = active, -1 = inactive

Give the logged outcome of this assay for the following molecule: `Cc1ccc(Cn2cc(C(=O)Nc3ccccc3C(N)=O)ccc2=O)cc1`
1

Give the logged outcome of this assay for the following molecule: `Cc1ccc(Cn2c(=O)c3ncccc3n(CC(=O)NCc3ccc(F)cc3)c2=O)cc1`
1

Give the logged outcome of this assay for the following molecule: `O=C(NCc1ccc2c(c1)OCO2)c1cc2c(s1)CCC2`
1

Give the logged outcome of this assay for the following molecule: `CCN(CC)C(=O)c1sc(NC(=O)c2cc(-c3ccccc3Cl)nc3ccccc23)c(C(N)=O)c1C`
-1

Give the logged outcome of this assay for the following molecule: `Cc1nnc(-c2ccc3ccn(CC(=O)N4CCN(c5ccccc5)CC4)c3c2)o1`
-1

Give the logged outcome of this assay for the following molecule: `O=C(CSc1nc2cc(C(F)(F)F)ccc2s1)NCC(=O)c1ccccc1`
1

Give the logged outcome of this assay for the following molecule: `O=C(Nc1ccncc1)c1cn(Cc2ccccc2)cc2c(=O)n(-c3ccccc3)nc1-2`
-1

Give the logged outcome of this assay for the following molecule: `O=C(C1=CSCCO1)N1CCc2ccccc2C1`
-1

Give the logged outcome of this assay for the following molecule: `CCCCNC(=O)CSc1nnc(-c2cc3ccccc3n2C)o1`
-1

Give the logged outcome of this assay for the following molecule: `O=C(Nc1cc(S(=O)(=O)Nc2ccc(Cl)cc2)ccc1O)c1cc2c(s1)CCC2`
1

Give the logged outcome of this assay for the following molecule: O=C(CCc1ccc(F)cc1)N1CCOC(CCc2cc(=O)[nH]cn2)C1 (stereo not given)
-1

Give the logged outcome of this assay for the following molecule: `O=C1NC(=O)/C(=C/c2ccc(OC(=O)c3ccc(Cl)cc3Cl)cc2)N1`
1

Give the logged outcome of this assay for the following molecule: `O=c1[nH]c2ccc(S(=O)(=O)Nc3ccc(O)c4ccccc34)cc2[nH]1`
1

Give the logged outcome of this assay for the following molecule: `Cc1ccc(NC(=O)Cc2nnc3cc(-c4nc(C)no4)ccn23)cc1`
1

Give the logged outcome of this assay for the following molecule: O=C1C(=O)N(c2nc3ccc(F)cc3s2)C(c2ccc(F)cc2)/C1=C(\O)c1ccc(F)cc1 (stereo not given)
1

----------
Subject of test: Ubiquitin carboxyl-terminal hydrolase 10 (Homo sapiens)
Run description: ubiquitin-specific protease 10 DUB inhibitors, concentration-effect, biochemical, verification of primary screen actives (AID 1645863);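 also: potency values describe inhibition of USP10 cleavage of a fluorogenic ubiquitin substrate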
Details: USP10 deubiquitinase enzymatic assay
Active and inactive are the calls of the source. No rule for the calls is given here.
Measured endpoint: IC50

Please give the measured IC50 for this compound: COc1ccc(C2(c3nnc(C(C)Oc4ccc(F)cc4)o3)CCOCC2)cc1 (stereo not given)
> 40 µM (inactive)

Please give the measured IC50 for this compound: `O=C(Cn1c(=O)c2ccccc2c2ccccc21)Nc1ccc2c(c1)OCO2`
34.9 µM

Please give the measured IC50 for this compound: `COc1cccc(N2CCCN(C(=O)c3ccc4nc(C)[nH]c4c3)CC2)c1`
> 40 µM (inactive)

Please give the measured IC50 for this compound: `Cc1nnc(-c2cc(S(=O)(=O)N3CCN(c4ccc(F)cc4)CC3)c[nH]2)o1`
> 40 µM (inactive)

Please give the measured IC50 for this compound: `O=C(CSc1ccc2nnc(-c3ccc(Cl)cc3)n2n1)N1CCCCC1`
> 40 µM (inactive)

Please give the measured IC50 for this compound: `c1ccc(CNc2ccc(-c3ccccc3)nn2)cc1`
> 40 µM (inactive)

Please give the measured IC50 for this compound: `O=C(Nc1ccccc1C(F)(F)F)c1cccc(S(=O)(=O)Nc2cc(C(F)(F)F)ccc2Cl)c1`
> 40 µM (inactive)

Please give the measured IC50 for this compound: `Cn1c(C(=O)NCc2ccccn2)cc2c(=O)[nH]c3ccccc3c21`
> 40 µM (inactive)

Please give the measured IC50 for this compound: `COc1ccc(-c2nc(-c3nnn(Cc4ccc(F)cc4)c3C)no2)c(OC)c1`
> 40 µM (inactive)

Please give the measured IC50 for this compound: `Cc1ccc(Cl)cc1NC(=O)c1cc(-c2ccccn2)n[nH]1`
> 40 µM (inactive)

Please give the measured IC50 for this compound: `COc1cc(OC)c(NC(=O)c2cc(-c3ccccn3)n[nH]2)cc1Cl`
28.9 µM

Please give the measured IC50 for this compound: `Cc1ccc2[nH]c(=O)c(-c3nc4ccccn4c3NCc3ccccc3)cc2c1`
23.7 µM

Please give the measured IC50 for this compound: `Cc1ccc2[nH]c3c(=O)n(Cc4ccc(N(C)C)cc4)cnc3c2c1`
19.5 µM

Please give the measured IC50 for this compound: `O=C(Cn1c(=O)c2sccc2n(Cc2ccc([N+](=O)[O-])cc2)c1=O)NCCc1ccccc1`
> 40 µM (inactive)

Please give the measured IC50 for this compound: `CCCCOc1ccc(-c2cc3n(c(=N)c2C#N)CCc2cc4c(cc2-3)OCCCO4)cc1OC`
> 40 µM (inactive)

Please give the measured IC50 for this compound: `CCn1cc2c(n1)c(=O)n(Cc1ccc(C)cc1)c(=O)n2CC(=O)Nc1ccc(F)cc1`
> 40 µM (inactive)

Please give the measured IC50 for this compound: `Cc1ccc2nc(NC(=O)/C=C/c3ccc4c(c3)OCO4)sc2c1`
15.1 µM

Please give the measured IC50 for this compound: `Cc1cc(NC(=O)CSc2ncc(-c3cccc([N+](=O)[O-])c3)n2-c2cccc(Cl)c2)no1`
> 40 µM (inactive)

Please give the measured IC50 for this compound: O=C(c1cccnc1)N1CCCC(Cc2cc(-c3ncc[nH]3)ncn2)C1 (stereo not given)
> 40 µM (inactive)

Please give the measured IC50 for this compound: `COc1ccccc1-c1nc(-c2cn(-c3cccc(Cl)c3)nn2)no1`
25.6 µM

Please give the measured IC50 for this compound: Cc1cccc(C(=O)Nc2cccc(SC(C(=O)Nc3ccc(O)c(C(=O)O)c3)c3ccccc3)c2)c1 (stereo not given)
> 40 µM (inactive)

Please give the measured IC50 for this compound: `COc1cc(O)c2c(O)c3c(cc2c1)C[C@@]1(O)CC(=O)C(C(N)=O)=C(O)[C@@]1(O)C3=O`
7.47 µM

Please give the measured IC50 for this compound: `O=C(NCCc1nc2ccccc2n1Cc1ccccc1F)c1ccc(Cl)cc1`
24.4 µM

Please give the measured IC50 for this compound: `O=C(COc1ccc(C2CCCCC2)cc1)Nc1ccc(-c2nn3cnnc3s2)cc1`
> 40 µM (inactive)

Please give the measured IC50 for this compound: Cc1nc(SCC(=O)NC(C)c2ccccc2)c2oc3ccccc3c2n1 (stereo not given)
> 40 µM (inactive)

Please give the measured IC50 for this compound: `CCN(Cc1ccccc1)C(=O)C1CCN(Cc2ccc(OC)c(OC)c2OC)CC1`
> 40 µM (inactive)

Please give the measured IC50 for this compound: O=C(c1ccc2cc[nH]c2c1)N1CCC(Nc2cccnc2)C1 (stereo not given)
> 40 µM (inactive)

Please give the measured IC50 for this compound: `Cc1ccc(S(=O)(=O)Nc2ccccc2C(=O)Nc2nc3ccc(Br)cc3s2)cc1`
> 40 µM (inactive)

Please give the measured IC50 for this compound: O=C(Nc1cccnc1)C1c2ccccc2C(=O)N(c2ccccc2)C12CCCCC2 (stereo not given)
> 40 µM (inactive)

Please give the measured IC50 for this compound: `COc1cccc(-n2cnc3cc(C(=O)NCCc4ccccc4)ccc3c2=O)c1`
19.8 µM

Please give the measured IC50 for this compound: Cc1ccc(C(=O)O)cc1NC(=O)C(Sc1cccc(NC(=O)c2cccc(Cl)c2)c1)c1ccccc1 (stereo not given)
> 40 µM (inactive)

Please give the measured IC50 for this compound: `CCc1ccc(NC(=O)Cn2c(=O)n(Cc3ccccc3)c(=O)c3nn(CC)cc32)cc1`
> 40 µM (inactive)

Please give the measured IC50 for this compound: `Cc1ccc(NC(=O)c2nnn(CC(=O)Nc3cccc(C)c3C)c2N)cc1C`
18.1 µM

Please give the measured IC50 for this compound: `Cc1ccc(NC(=O)Nc2ccccc2OCc2cc(=O)n3cc(C)ccc3n2)cc1`
> 40 µM (inactive)

Please give the measured IC50 for this compound: `CCOc1ccc(NS(=O)(=O)c2ccc(NC(=O)Nc3ccccc3)cc2)cc1`
> 40 µM (inactive)

----------
Subject of test: UniProt:Q14694
Run description: ubiquitin-specific protease 10 DUB inhibitors, concentration-effect, biochemical, verification of primary screen actives (AID 1645863);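 also: potency values describe inhibition of USP10 cleavage of a fluorogenic ubiquitin substrate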
Details: USP10 deubiquitinase enzymatic assay
Active and inactive are the calls of the source. How the calls were made is not given here. Where a SMILES comes first, the peptide text is derived from it. Bridges are numbered along the chain shown (N, C = ends). The star is where a group is joined. ξ: configuration not given here. Pentadecanoyl(3ξ-OH,15-Gua) = N=C(N)NCCCCCCCCCCCCC(O)CC(=O)*
Could you please pick one outcome from this set? 1 (yes) for active, 0 (no) for inactive

Give the logged outcome of this assay for the following compound: CN1CCC(N2CCN(C(=O)C3CCCN(c4cnc5nccnc5c4)C3)CC2)CC1 (stereo not given)
0 (no)

Give the logged outcome of this assay for the following compound: `Cc1cccc(NC(=O)c2noc3c2CCc2sccc2-3)n1`
0 (no)

Give the logged outcome of this assay for the following compound: `COc1cccc(NC(=O)CCc2nnc3n(CCCOC(C)C)c(=O)c4ccccc4n23)c1`
0 (no)

Give the logged outcome of this assay for the following compound: CC(OC(=O)c1cc(S(=O)(=O)Nc2ccccc2F)ccc1Cl)C(=O)Nc1ccc([N+](=O)[O-])cc1C(F)(F)F (stereo not given)
1 (yes)

Give the logged outcome of this assay for the following compound: `COc1ccccc1Nc1ncc(C(=O)NCCc2ccc(Cl)cc2)c2ccccc12`
0 (no)

Give the logged outcome of this assay for the following compound: `Cc1ccc(NC(=O)Cc2sc(Nc3ccc(C)cc3)nc2O)cc1`
0 (no)

Give the logged outcome of this assay for the following compound: `Cc1ccccc1NC(=O)Cn1ccc2ccn(Cc3ccccc3)c2c1=O`
0 (no)

Give the logged outcome of this assay for the following compound: `COc1cccc(CNc2ccc(-c3nc(-c4ccccc4)no3)nn2)c1`
0 (no)

Give the logged outcome of this assay for the following compound: CC1NC(=O)C(CC(N)=O)NC(=O)C(C(C)O)NC(=O)C(Cc2ccc(O)cc2)NC(=O)C(C(C)C)NC(=O)C(NC(=O)CC(O)CCCCCCCCCCCCN=C(N)N)C(C)OC1=O (stereo not given) ({Pentadecanoyl(3ξ-OH,15-Gua)}-TVYTNA; ester 1-C; configuration not given here)
0 (no)

Give the logged outcome of this assay for the following compound: `COc1ccc(Cl)cc1NC(=O)COC(=O)c1cc2ccccc2oc1=O`
1 (yes)

Give the logged outcome of this assay for the following compound: `Cc1ccccc1NC(=O)Cn1c(=O)n(-c2ccc(CC(=O)NCCc3ccccc3)cc2)c(=O)c2sccc21`
1 (yes)

Give the logged outcome of this assay for the following compound: `COC(=O)c1ccc2c(=O)n(CCCCCC(=O)NCc3cccc(Cl)c3)c(=O)[nH]c2c1`
1 (yes)

Give the logged outcome of this assay for the following compound: COc1cc2c(oc(=O)c3cc(C)cc(OC)c32)c2c([C@@H]3OC(C)[C@@H](O)[C@@](C)(O)C3O)ccc(O)c12 (stereo not given in full)
0 (no)

Give the logged outcome of this assay for the following compound: CC[C@H](C)[C@H](NC(=O)[C@H]([C@@H](C)CC)N(C)C(C)=O)C(=O)N[C@H](C(=O)N[C@@H](CC(C)C)C(=O)C1(C)CO1)[C@@H](C)O (stereo not given in full)
0 (no)

Give the logged outcome of this assay for the following compound: COc1ccccc1/C=C/C(=O)NC(Cc1ccccc1)c1nc2ccccc2[nH]1 (stereo not given)
0 (no)

Give the logged outcome of this assay for the following compound: `CCc1noc(-c2ccn3c(CC(=O)Nc4ccccc4C)nnc3c2)n1`
1 (yes)

Give the logged outcome of this assay for the following compound: `CCOc1ccc2c(c1)c(=O)c(C(=O)c1ccccc1)cn2CC(=O)Nc1ccc(OC)cc1`
0 (no)

Give the logged outcome of this assay for the following compound: `Cn1cc2cccc(NC(=O)c3ccc(F)cc3)c2n1`
0 (no)

Give the logged outcome of this assay for the following compound: `COc1cc(NC(=O)Cn2nc(-c3ccc(F)cc3)ccc2=O)ccc1-n1cnnn1`
0 (no)

Give the logged outcome of this assay for the following compound: `Cc1cc(NC(=O)Cn2c(=O)n(Cc3ccco3)c(=O)c3ccc(C(=O)NCCc4ccccc4)cc32)n[nH]1`
1 (yes)
